Values compiled from paper PMC12136795.

# target-of-assay: T1, Lsm2-8fSNAP (unlabeled) (Saccharomyces cerevisiae, UniProt P38203;P57743;P40070;P40089;Q06406;P53905;P47093 …)
# T1 sequence 1: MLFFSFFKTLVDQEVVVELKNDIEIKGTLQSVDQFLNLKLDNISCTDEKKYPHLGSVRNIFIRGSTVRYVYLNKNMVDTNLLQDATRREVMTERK
# T1 sequence 2: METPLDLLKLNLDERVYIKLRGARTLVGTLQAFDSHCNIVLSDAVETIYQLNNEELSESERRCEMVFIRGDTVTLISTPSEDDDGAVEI
# T1 sequence 3: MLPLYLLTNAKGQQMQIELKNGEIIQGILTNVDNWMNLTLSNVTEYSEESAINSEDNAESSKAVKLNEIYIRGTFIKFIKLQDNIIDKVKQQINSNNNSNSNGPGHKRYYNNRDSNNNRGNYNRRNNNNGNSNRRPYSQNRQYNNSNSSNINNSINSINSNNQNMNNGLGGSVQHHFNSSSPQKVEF
# T1 sequence 4: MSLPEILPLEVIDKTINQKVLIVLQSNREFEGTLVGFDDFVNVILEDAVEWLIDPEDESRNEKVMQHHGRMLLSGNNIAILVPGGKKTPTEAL
# T1 sequence 5: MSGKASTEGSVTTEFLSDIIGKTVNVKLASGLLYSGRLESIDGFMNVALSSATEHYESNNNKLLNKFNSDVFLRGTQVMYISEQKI
# T1 sequence 6: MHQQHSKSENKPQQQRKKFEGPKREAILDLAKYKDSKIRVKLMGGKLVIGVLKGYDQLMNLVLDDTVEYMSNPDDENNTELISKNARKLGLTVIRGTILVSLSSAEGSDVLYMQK
# T1 sequence 7: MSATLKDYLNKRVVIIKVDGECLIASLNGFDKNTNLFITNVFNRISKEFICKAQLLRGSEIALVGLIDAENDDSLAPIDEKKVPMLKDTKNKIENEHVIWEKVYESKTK
# procedure-text: fluorescence polarization; Hill 0.88; FP: 2x RNA stock 2 nM mixed 1:1 with protein, 100 mM NaCl, 20 mM Bis-Tris pH 7.0, 10 mM HCl, 1 mM TCEP, 5% glycerol, yeast tRNA, BSA. EMSA: 100 mM KCl, 20% sucrose, 20 mM Hepes pH 7, 1 mM EDTA, 1 mM TCEP, 0.01% Triton X-100 (RNA buffer), yeast tRNA, heparin, BSA, 30 min room temperature, 6% native PAGE at 4 C. CoSMoS buffer not in material.
# condition-info: protein: recombinant; tags: fast SNAP tag at C terminus of Lsm8 via flexible linker; His-tag removed with TEV; copies: 1;1;1;1;1;1;1; label: fluorophore
endpoint-label: pKd
pKd here is simply -log10 of the concentration when that concentration is written in mol/L.

Ask: // query pKd value for entry AGAGAUUUAUUUCGUUUU (ssRNA, 3' phosphate) [U6 95-112-P]
Result: 7.89
